src = patent US9309242B2

testedTarget: Ba/F3-FGFR3-transfected cells (Homo sapiens, UniProt P22607)
Construct: BAF3-FGFR3 (MIN IL3) pIC50; other: minus IL3
Sequence (P22607 whole entry, change not shown): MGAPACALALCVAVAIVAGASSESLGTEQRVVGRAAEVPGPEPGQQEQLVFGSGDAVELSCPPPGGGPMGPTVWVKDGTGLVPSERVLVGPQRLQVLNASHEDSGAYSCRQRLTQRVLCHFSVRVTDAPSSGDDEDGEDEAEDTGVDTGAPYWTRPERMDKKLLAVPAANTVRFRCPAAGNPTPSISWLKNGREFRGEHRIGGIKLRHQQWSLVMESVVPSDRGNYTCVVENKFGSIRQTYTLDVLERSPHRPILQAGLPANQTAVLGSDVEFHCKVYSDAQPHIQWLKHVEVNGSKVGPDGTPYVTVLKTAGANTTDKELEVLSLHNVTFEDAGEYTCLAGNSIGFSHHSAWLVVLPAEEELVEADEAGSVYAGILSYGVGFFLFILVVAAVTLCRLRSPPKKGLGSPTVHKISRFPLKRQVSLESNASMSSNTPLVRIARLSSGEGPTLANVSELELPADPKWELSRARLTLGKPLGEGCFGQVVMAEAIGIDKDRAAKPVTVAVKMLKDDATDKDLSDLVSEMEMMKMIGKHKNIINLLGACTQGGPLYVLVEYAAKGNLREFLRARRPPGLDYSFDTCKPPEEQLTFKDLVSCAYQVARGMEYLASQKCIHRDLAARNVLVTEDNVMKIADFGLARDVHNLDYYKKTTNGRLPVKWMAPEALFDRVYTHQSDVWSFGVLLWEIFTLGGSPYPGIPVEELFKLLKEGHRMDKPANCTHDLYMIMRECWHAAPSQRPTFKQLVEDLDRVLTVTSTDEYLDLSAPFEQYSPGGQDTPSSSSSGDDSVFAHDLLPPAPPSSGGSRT
testSummary: Ba/F3-FGFR3 (minus IL3) cellular proliferation assay, Alamar Blue
Format: cell-based
Where a name gives a salt, the structure may show the parent alone.
For each entry below, report its BAF3-FGFR3 (MIN IL3) pIC50 value.

Task item: Given the molecule COc1ccc(Cl)c(N(CC2CCC(=O)N2)c2ccc3ncc(-c4cnn(C)c4)nc3n2)c1Cl (stereo not shown) [Compound 94] , what is its reported BAF3-FGFR3 (MIN IL3) pIC50?
Reply: ~5.56

Task item: Return reported BAF3-FGFR3 (MIN IL3) pIC50; argument: COc1cc(OC)c(F)c(N(Cc2ncc[nH]2)c2ccc3ncc(-c4cnn(C)c4)nc3n2)c1 [23-fumarate salt]
Reply: ~8.67

Task item: I have this molecule here, COc1cc(OC)c(Cl)c(N(Cc2ncc[nH]2)c2ccc3ncc(-c4cnn(C)c4)nc3n2)c1 , and I need its recorded BAF3-FGFR3 (MIN IL3) pIC50.
Reply: ~8.3

Task item: I would be grateful if you could share the reported BAF3-FGFR3 (MIN IL3) pIC50 for COc1cc(OC)c(F)c(N(Cc2ncc[nH]2)c2ccc3ncc(-c4ccncc4)nc3n2)c1 .
Reply: ~8.11

Task item: Please give the measured BAF3-FGFR3 (MIN IL3) pIC50 for this molecule: COc1cc(OC)c(F)c(N(Cc2nc[nH]n2)c2ccc3ncc(-c4cnn(C)c4)nc3n2)c1
Reply: ~7.90

Task item: What value of BAF3-FGFR3 (MIN IL3) pIC50 has been reported for the following molecule? COc1cc(/N=c2\ccc3ncc(-c4cnn(C)c4)nc3n2CCCN2CCCC2=O)c(F)c(OC)c1
Reply: ~8.07

Task item: Param item = COc1cc(OC)cc(N(CC(O)COC(C)C)c2ccc3ncc(-c4cnn(CC(O)COC(C)C)c4)nc3n2)c1 (stereo not shown) ; retrieve measured BAF3-FGFR3 (MIN IL3) pIC50.
Reply: ~7.09

====

testedTarget: FGFR2 (h) (Homo sapiens)
Sequence (P21802 22-821): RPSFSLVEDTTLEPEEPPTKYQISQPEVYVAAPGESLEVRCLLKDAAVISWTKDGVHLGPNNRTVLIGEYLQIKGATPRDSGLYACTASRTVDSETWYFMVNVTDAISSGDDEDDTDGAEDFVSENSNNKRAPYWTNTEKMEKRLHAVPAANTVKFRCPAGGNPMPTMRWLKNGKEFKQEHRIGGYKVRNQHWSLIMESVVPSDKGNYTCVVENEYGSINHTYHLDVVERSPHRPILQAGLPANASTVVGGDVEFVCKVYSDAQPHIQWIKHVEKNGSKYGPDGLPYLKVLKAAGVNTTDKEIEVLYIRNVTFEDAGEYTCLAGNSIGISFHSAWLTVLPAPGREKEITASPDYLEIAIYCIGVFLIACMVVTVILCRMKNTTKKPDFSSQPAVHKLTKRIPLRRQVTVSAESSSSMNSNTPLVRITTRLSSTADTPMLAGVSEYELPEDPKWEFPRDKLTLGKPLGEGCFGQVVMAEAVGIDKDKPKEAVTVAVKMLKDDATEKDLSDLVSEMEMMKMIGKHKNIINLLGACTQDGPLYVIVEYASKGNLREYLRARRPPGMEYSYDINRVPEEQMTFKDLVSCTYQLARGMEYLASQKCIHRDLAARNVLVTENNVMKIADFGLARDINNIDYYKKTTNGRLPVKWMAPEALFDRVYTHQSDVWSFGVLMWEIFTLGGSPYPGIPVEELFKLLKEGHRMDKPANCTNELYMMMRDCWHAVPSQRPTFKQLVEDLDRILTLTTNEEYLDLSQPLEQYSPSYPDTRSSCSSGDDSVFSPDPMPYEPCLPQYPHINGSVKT
testSummary: FGFR2 (enzymatic assay), TR-FRET
Format: biochemical
conditions: enzymatic assay; read-out: FGFR 2 pIC50 (converted)
outcomeMeasure: IC50
In your response, put the unit directly after the numeric value.

Task item: Name the reported IC50 value associated with the compound COc1cc(OC)c(F)c(N(Cc2nccn2CCO)c2ccc3ncc(-c4cnn(C)c4)nc3n2)c1 [Compound 145]
Reply: 3.8 nM

Task item: Which measured IC50 value corresponds to COc1cc(OC)cc(N(CCN2CCOCC2)c2ccc3ncc(-c4cnn(C)c4)nc3n2)c1 [Compound 146] ?
Reply: 4.68 nM

Task item: GET /values?readout=IC50&item= COc1cc(OC)c(F)c(N(Cc2nc(Br)c[nH]2)c2ccc3ncc(-c4cnn(C)c4)nc3n2)c1 [Compound 238]
Reply: 2.14 nM

Task item: Which value of IC50 has been reported for COc1cc(OC)c(F)c(N(CC(=O)O)c2ccc3ncc(-c4cnn(C)c4)nc3n2)c1 [Compound 231] in the records?
Reply: 6.31 nM

Task item: Sample COc1cc(OC)c(F)c(N(CC(C)(C)O)c2ccc3ncc(-c4cnn(C)c4)nc3n2)c1 [Compound 245] — what was its IC50?
Reply: 4.47 nM

Task item: Suppose we examine the compound COc1cc(OC)c(F)c(/N=c2\ccc3ncc(-c4cnn(C)c4)nc3n2CC2CCOC2)c1F (stereo not shown) [Compound 154] ; what IC50 value has been reported?
Reply: 1.05 nM

Task item: Return reported IC50; argument: COc1ccc(Cl)c(N(CC2CCC(=O)N2)c2ccc3ncc(-c4cnn(C)c4)nc3n2)c1Cl (stereo not shown) [Compound 93]
Reply: 60.3 nM

Task item: What value of measured IC50 is listed for COc1cc(OC)c(F)c(N(CC(=O)NCCO)c2ccc3ncc(-c4cnn(C)c4)nc3n2)c1 [Compound 230] ?
Reply: 7.41 nM

Task item: What value of IC50 has been reported for the following compound? COc1cc(OC)cc(N(Cc2noc(C)n2)c2ccc3ncc(-c4cnn(C)c4)nc3n2)c1 [Compound 186]
Reply: 2.57 nM

Task item: Requested read-out: IC50. Entry: COc1cc(OC)cc(N(CC2CCCOC2)c2ccc3ncc(-c4cnn(C)c4)nc3n2)c1 (stereo not shown) [Compound 166]
Reply: 3.16 nM
